target: Vesicular acetylcholine transporter (Torpedo californica); assay: Inhibition of active transport of [3H]acetylcholine using purified Torpedo californica synaptic vesicles
QUANTITY MEASURED: pIC50
pIC50 is defined as minus the log10 of a concentration measured in mol/L.

Task: # get_value(readout='pIC50', item= COc1ccccc1N1CCN(C2CC3CCCCC3CC2O)CC1 (stereo unspecified) )
Result: 6.52

* * *

molecular target: Vesicular acetylcholine transporter (Torpedo californica); assay: Inhibition of active transport of [3H]acetylcholine using purified Torpedo californica synaptic vesicles
QUANTITY MEASURED: pIC50
pIC50 is defined as minus the log10 of a concentration measured in mol/L.

{"COMPOUND": "O=C(O)CCC(=O)Nc1cccc2c1CC(O)C(N1CCC(c3ccccc3)CC1)C2 (stereo unspecified)", "pIC50": 6.30}
{"COMPOUND": "CC(=O)OC1CCCCC1N1CCC(c2ccccc2)CC1 (stereo unspecified)", "pIC50": 5.70}
{"COMPOUND": "O[C@H]1[C@H](N2CCC(c3ccccc3)CC2)CCC[C@H]1c1ccccc1", "pIC50": 6.22}

Task: # get_value(readout='pIC50', item= CCC(O)C[N+]1(C)CCC(c2ccccc2)CC1 (stereo unspecified) )
Result: 5.70

Task: # get_value(readout='pIC50', item= O=C(Nc1cccc2c1CC(O)C(N1CCC(c3ccccc3)CC1)C2)C(F)(F)F (stereo unspecified) )
Result: 5.70

Task: # get_value(readout='pIC50', item= CC(=O)Nc1ccc(C2CCN(C3CCCCC3O)CC2)cc1 (stereo unspecified) )
Result: 4.70

* * *

molecular target: Vesicular acetylcholine transporter (Torpedo californica); assay: Inhibition of active transport of [3H]acetylcholine using purified Torpedo californica synaptic vesicles
// classify: if (IC50 < 1000 nM) rule met else rule not met

Task: Given CC(=O)Nc1cccc2c1CC(O)C(N1CCC(c3ccccc3)CC1)C2 (stereo not drawn) , is recorded IC50 strictly lower than 1000 nM?
Result: rule not met

* * *

target: Vesicular acetylcholine transporter (Torpedo californica); experiment: Inhibition of active transport of [3H]acetylcholine using purified Torpedo californica synaptic vesicles
QUANTITY MEASURED: IC50 (nM)
Express the result in nM but write the number alone.

See these solved cases before continuing.
{"COMPOUND": "OC1CN(C2CCCCC2O)CCC1c1ccccc1 (centres undefined)", "UNIT SPEC": "nM", "NUMBER": 200}
{"COMPOUND": "O=[N+]([O-])c1ccc(C2CCN(C3CCCCC3O)CC2)c([N+](=O)[O-])c1 (centres undefined)", "UNIT SPEC": "nM", "NUMBER": 300}
{"COMPOUND": "COc1ccc2c3c1OC1C(O)C=CC4C(C2)N(C2CCCCC2O)CCC341 (centres undefined)", "UNIT SPEC": "nM", "NUMBER": 80000}
{"COMPOUND": "CC(=O)OCC[N+]1(C)CCC(c2ccccc2)CC1 (centres undefined)", "UNIT SPEC": "nM", "NUMBER": 4000}
{"COMPOUND": "CC(C)(C)[C@H]1CC[C@@H](O)[C@H](N2CCC(c3ccccc3)CC2)C1", "UNIT SPEC": "nM", "NUMBER": 20}
{"COMPOUND": "OC1CCCCC1N1C=NC(c2ccccc2)C1 (centres undefined)", "UNIT SPEC": "nM", "NUMBER": 40000}
{"COMPOUND": "O=C(O)CCC(=O)Nc1cccc2c1CC(N1CCC(c3ccccc3)CC1)C(O)C2 (centres undefined)", "UNIT SPEC": "nM", "NUMBER": 50}

Please find the next compound below.
Task: # get_value(readout='IC50', item= OC1CCCCC1N1CCC(CCCc2ccccc2)CC1 (centres undefined) )
Result: 70

* * *

biological target: Vesicular acetylcholine transporter (Torpedo californica); test: Inhibition of active transport of [3H]acetylcholine using purified Torpedo californica synaptic vesicles
pIC50: −log10 of the molar value.
Decision: pIC50 compared against 6; not below it gives satisfied, below it gives not satisfied.

Task: Is pIC50 at least 6? Consider O=C1CCCCC1N1CCC(c2ccccc2)CC1 (configuration not stated)
Result: not satisfied

* * *

target: Vesicular acetylcholine transporter (Torpedo californica); assay: Inhibition of active transport of [3H]acetylcholine using purified Torpedo californica synaptic vesicles
Reported pIC50 values for a set of molecules
pIC50 is defined as minus the log10 of a concentration measured in mol/L.

See these solved cases before continuing.
{"MOLECULE": "OC1CCCCC1N1CCC(C2CCN(C3CCCCC3O)CC2)CC1 (stereo unspecified)", "NUMBER": 6.70}
{"MOLECULE": "O[C@H]1CCCC[C@H]1CN1CCC(c2ccccc2)CC1", "NUMBER": 6.00}
{"MOLECULE": "CC1(O)CCCC[C@H]1N1CCC(c2ccccc2)CC1 (stereo partly specified)", "NUMBER": 5.22}
{"MOLECULE": "OC[C@H]1CC[C@@H](O)[C@H](N2CCC(c3ccccc3)CC2)C1", "NUMBER": 6.10}
{"MOLECULE": "C[N+]1(CCO)CCC(c2ccccc2)CC1 (stereo unspecified)", "NUMBER": 5.10}

Task: # get_value(readout='pIC50', item= O=C(CCCCC1SCC2NC(=O)NC21)NCC(=O)NCC(=O)Nc1cccc2c1CC(N1CCC(c3ccccc3)CC1)C(O)C2 (stereo unspecified) )
Result: 6.70

Task: # get_value(readout='pIC50', item= O=C(CCC(=O)Nc1cccc2c1CC(N1CCC(c3ccccc3)CC1)C(O)C2)NNC(=O)CCC(=O)Nc1cccc2c1CC(N1CCC(c3ccccc3)CC1)C(O)C2 (stereo unspecified) )
Result: 6.00

Task: # get_value(readout='pIC50', item= CC(=O)Nc1ccc(I)c2c1CC(N1CCC(c3ccccc3)CC1)C(O)C2 (stereo unspecified) )
Result: 6.52

Task: # get_value(readout='pIC50', item= Nc1cccc2c1CC(O)C(N1CCC(c3ccccc3)CC1)C2 (stereo unspecified) )
Result: 6.52

Task: # get_value(readout='pIC50', item= CN(CCCc1ccccc1)C1CCCCC1O (stereo unspecified) )
Result: 5.70

* * *

molecular target: Vesicular acetylcholine transporter (Torpedo californica); assay: Inhibition of active transport of [3H]acetylcholine using purified Torpedo californica synaptic vesicles
QUANTITY MEASURED: pIC50
pIC50 is defined as minus the log10 of a concentration measured in mol/L.

{"MOLECULE": "CC(=O)OC1CCCCC1[N+]1(C)CCC(c2ccccc2)CC1 (stereo unspecified)", "pIC50": 5.30}
{"MOLECULE": "CC(C)(C)[C@H]1CC[C@@H](N2CCC(c3ccccc3)CC2)[C@H](O)C1", "pIC50": 7.05}
{"MOLECULE": "Nc1cccc2c1CC(N1CCC(c3ccccc3)CC1)C(O)C2 (stereo unspecified)", "pIC50": 7.00}
{"MOLECULE": "O[C@@H]1CCCC[C@H]1CN1CCC(c2ccccc2)CC1", "pIC50": 5.70}

Task: # get_value(readout='pIC50', item= CC1(c2ccccc2)CCCN(C2CCCCC2O)C1 (stereo unspecified) )
Result: 5.40

Data provenance is BindingDB's records for doi:10.1021/jm00126a013.
